Values from patent US12065441B2

Assay: Pharmacokinetics experiment in mice (intravenous and oral)
Assay type: in vivo
Details: both sexes, mouse, blood, 10 mg/kg, oral administration, single dose
Experimental: Experimental animals: mice, male and female, weight: 23-25 g; Preparation of the test articles: The target compounds (Ig, Ii, and Ip) were prepared as 0.4 mg/mL (for intravenous administration) and 1.0 mg/mL (for oral administration), for later use. Administration route: oral administration/intravenous injection. Dosing volume and frequency: 5 mL/kg (intravenous injection) or 10 mL/kg (oral administration), single dose. […]
experimental_endpoint: Cmax (ng/mL)

Supply measured Cmax of N#CCC1(n2cc(-c3ncnc4[nH]ncc34)cn2)CN(C2CCN(C(=O)c3ccnc(C(F)(F)F)c3F)CC2)C1 in your reply.
904

(a) CCS(=O)(=O)N1CCC(N2CC(CC#N)(n3cc(-c4ncnc5[nH]ncc45)cn3)C2)CC1
(b) CCS(=O)(=O)N1CC(CC#N)(n2cc(-c3ncnc4[nH]ncc34)cn2)C1
When their Cmax values are compared, which is larger, a or b ? # answer = label of selected item
b
